biological target: hα1; type: binding, rat; conditions: read-out: Ki hα1; Table 6 selectivity profile
Recorded metric: Ki (µM)
Give bare numbers, in µM.

input: Provide one value: measured Ki of CCn1c2ccccc2c2cc(CNCCCCNC(=O)c3ccc(-c4cccnc4)cc3)ccc21 [23j]
output: 8.35

* * *

target: hD3R (Homo sapiens, UniProt P35462); assay: biochemical; format: binding; conditions: Ki hD3, three experiments, means ± SEM
Sequence (P35462 whole entry): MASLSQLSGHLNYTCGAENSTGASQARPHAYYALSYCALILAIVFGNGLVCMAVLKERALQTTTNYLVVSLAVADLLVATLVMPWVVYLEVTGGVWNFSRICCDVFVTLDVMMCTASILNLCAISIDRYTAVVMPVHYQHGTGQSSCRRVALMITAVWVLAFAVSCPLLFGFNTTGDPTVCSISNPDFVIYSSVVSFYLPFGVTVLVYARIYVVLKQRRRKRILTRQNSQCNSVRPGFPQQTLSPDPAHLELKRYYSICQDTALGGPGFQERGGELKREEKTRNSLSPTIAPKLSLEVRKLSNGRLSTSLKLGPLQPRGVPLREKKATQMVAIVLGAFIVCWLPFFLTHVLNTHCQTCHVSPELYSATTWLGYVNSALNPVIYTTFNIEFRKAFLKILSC
Recorded metric: pKi
One number for each entry, as −log10 of the molar value.

Before answering, review these 8 worked examples.
Molecule	Assay target	Numeric value
CCn1c2ccccc2c2cc(CNCCCCNC(=O)c3ccc4[nH]c5ccccc5c4c3)ccc21 [23k]	hD3R (Homo sapiens, UniProt P35462)	6.84
Cn1c2c(c3ccccc31)CN(CCCCNC(=O)c1ccc3[nH]c4ccccc4c3c1)CC2 [36h]	hD3R (Homo sapiens, UniProt P35462)	7.71
CCn1c2ccccc2c2cc(CNCCCCn3ccnc3)ccc21 [17a]	hD3R (Homo sapiens, UniProt P35462)	6.00
Cn1c2c(c3ccccc31)CCN(CCCCNC(=O)c1cc3ccccc3[nH]1)C2 [42a]	hD3R (Homo sapiens, UniProt P35462)	8.17
CCN(CCCCNC(=O)c1cc2ccccc2[nH]1)Cc1ccc2c(c1)c1ccccc1n2CC [31a]	hD3R (Homo sapiens, UniProt P35462)	6.87
CCn1c2ccccc2c2cc(CNCCCn3cnc4ccccc43)ccc21 [17d]	hD3R (Homo sapiens, UniProt P35462)	5.96
CCCN(CCCCNC(=O)c1cc2ccccn2n1)Cc1ccc2c(c1)c1ccccc1n2CC [31e]	hD3R (Homo sapiens, UniProt P35462)	6.32
CC(C)n1c2ccccc2c2cc(CNCCCn3ccnc3)ccc21 [3c]	hD3R (Homo sapiens, UniProt P35462)	6.18

Continue with the next molecule.
input: Quote pKi with test system hD3R (Homo sapiens, UniProt P35462) for CCn1c2ccccc2c2cc(CNCCCCNC(=O)c3ccc4[nH]c(=O)oc4c3)ccc21 [23f]
output: 7.02
